assay: in vitro; details: human, hela cells, % viability
# viability at 28.5 h, 10 µM annotations
READOUT: viability at 28.5 h, 10 µM

INSERT INTO results (compound, reported_value) VALUES
  ('CCOc1ccc(S(=O)(=O)N2CCCC(C(=O)NCCO)C2)cc1 (stereo not shown)', '83.8%'),
  ('CCCCc1ccc(C(=O)CSc2nc(N)c(C#N)c(-c3ccc(O)cc3)c2C#N)cc1', '93.4%'),
  ('COc1ccc(N2C(=O)c3ccc(C(=O)OCC(=O)c4ccc(-c5ccccc5)cc4)cc3C2=O)cc1', '95.8%'),
  ('CC(=O)NCCSc1nccnc1N1CCCC1', '91.7%'),
  ('O=C(NCCNc1ccc(Cl)cc1[N+](=O)[O-])c1c(F)cccc1F', '97.6%'),
  ('NC(=O)C(=O)c1c(-c2ccccc2)cc2ccccn12', '100%'),
  ('COC(=O)c1c(NC(=O)C2C3C=CC(C3)C2C(=O)O)sc2c1CCCCC2 (stereo not shown)', '80.2%'),
  ('O=C(NCc1ccncc1)c1csc2c(C(F)(F)F)cc(N3CCN(Cc4ccccc4)CC3)nc12 [CBK034294T]', '98.6%'),
  ('O=C(c1cc(-c2ccc(Cl)cc2)[nH]n1)N1CCN(c2ncccn2)CC1', '93%'),
  ('O=C(O)c1cccnc1SC1CC(=O)N(c2cccc(Cl)c2Cl)C1=O (stereo not shown)', '110%'),
  ('CC(=O)N1CCCc2cc(C(O)CN3CCCC(C)(C)C3)ccc21 (stereo not shown)', '94.3%'),
  ('CCCc1ccc(S(=O)(=O)Nc2cccc(C(=O)N3CCN(C)CC3)c2)cc1', '122%'),
  ('CC(=O)c1cccc(NC(=O)/C(=C\c2cccnc2)NC(=O)c2ccc(C)cc2)c1', '88.6%'),
  ('COCCNC(=O)c1ccc(-c2ccccc2OC)nc1N(C)C', '92%'),
  ('COC(=O)c1ncn(CC(=O)N2CCCCCC2)n1', '98.9%'),
  ('O=C(O)CC1CCN(c2ccc(C(F)(F)F)cn2)CC1', '90.4%'),
  ('c1ccc(OCCOc2nccnc2-c2ccc3c(c2)OCO3)cc1', '96.1%'),
  ('CC(C)OCC(O)Cn1c(N/N=C/c2ccccc2O)nc2c1c(=O)[nH]c(=O)n2C (stereo not shown)', '101%'),
  ('C=CCN1C(=O)C2(CC(=O)N(CCOc3ccccc3)C2=O)c2ccccc21 (stereo not shown)', '101%');

====

# viability at 28.5 h, 1 µM annotations
assay: in vitro; design: Viability of infected HeLa host cells, resazurin conversion, bulk resorufin fluorescence relative to DMSO; details: human, hela cells; bulk resorufin, mean of 3
READOUT: viability at 28.5 h, 1 µM (%)

INSERT INTO results (compound, readout, reported_value) VALUES
  ('CC(Cc1nc(-c2nccn2C)cs1)n1cc(Cl)cn1 (stereo not shown) [c14e]', 'viability at 28.5 h, 1 µM', 111),
  ('CC(=O)N1CCc2sccc2C1c1ccccc1NCc1ccoc1 (stereo not shown) [c28e]', 'viability at 28.5 h, 1 µM', 90.6),
  ('O=C(CC1CCN(CCc2ccccc2)CC1)Nc1cccc(-n2cccn2)c1', 'viability at 28.5 h, 1 µM', 89.9),
  ('CCC(c1ccc(F)cc1)N(C)C(=O)Cn1cc(C(=O)NC2CCCCC2)ccc1=O (stereo not shown) [c44e]', 'viability at 28.5 h, 1 µM', 85.4),
  ('Oc1c(CN2CCN(c3ccc(F)cc3)CC2)cc(Br)c2cccnc12 [c43e]', 'viability at 28.5 h, 1 µM', 86.1),
  ('N#Cc1c(Nc2cccc(C(F)(F)F)c2)sc(C(=O)c2ccc3c(c2)OCO3)c1N', 'viability at 28.5 h, 1 µM', 94.3),
  ('O=C(Nc1ccc(F)c(F)c1)NC1CCC2CN(CCOc3ccccc3)CC2C1 (stereo not shown)', 'viability at 28.5 h, 1 µM', 94.6),
  ('O=C(NCCc1c[nH]c2ccc(Cl)cc12)c1c(F)ccc(Cl)c1F [c42e]', 'viability at 28.5 h, 1 µM', 109),
  ('CCCN(CCC)CCc1cccc2c1CCN2C(=O)c1cc2ccccc2s1 [c15e]', 'viability at 28.5 h, 1 µM', 90.6),
  ('O=C1Oc2nc3ccccc3cc2CN1C1CC1', 'viability at 28.5 h, 1 µM', 89.5);
